Biological target: human PPARα (Homo sapiens)
Sequence (Q07869 239-466 limits assumed): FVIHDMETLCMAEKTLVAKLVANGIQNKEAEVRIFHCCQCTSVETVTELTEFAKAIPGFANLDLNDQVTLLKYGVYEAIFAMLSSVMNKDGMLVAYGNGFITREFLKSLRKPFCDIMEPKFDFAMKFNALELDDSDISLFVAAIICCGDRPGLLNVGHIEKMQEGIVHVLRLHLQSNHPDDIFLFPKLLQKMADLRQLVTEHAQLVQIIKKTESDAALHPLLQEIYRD
Experiment: Activation of transcription of human PPARα (Gal4-PPARα LBD luciferase reporter assay in CHO-K1 cells)
Details: CHO-K1 cells cotransfected with Gal4 DNA-binding domain/human PPARα ligand-binding domain receptor plasmid, firefly luciferase reporter and renilla internal standard; 20 hours at 37° C.
Consider the following compounds; for each one, report its pEC50.
One number for each entry, as −log10 of the molar value.

Batch of 3 compounds: report pEC50 for each.
1. Cc1nc(-c2ccc(Cl)cc2)sc1CNC(=O)C1CCCN(c2ccccc2C(=O)O)C1 (stereo not drawn) [Example 20]
2. Cc1nc(-c2ccc(Cl)cc2)sc1COCC1CCCN(c2ccccc2C(=O)O)C1 (stereo not drawn) [Example 22]
3. Cc1nc(-c2ccc(Cl)cc2)sc1C(=O)NC1CCCN(c2cccc(C(=O)O)c2)C1 (stereo not drawn) [Example 32]

Response:
1: 5.87; 2: 6.80; 3: 7.70
